Data origin, for the record: ChEMBL document CHEMBL5149999

target: Sigma intracellular receptor 2 (Homo sapiens, UniProt Q5BJF2); assay: Binding affinity to sigma 2 receptor (unknown origin) assessed as dissociation constant by competitive binding assay
Sequence (Q5BJF2 whole entry): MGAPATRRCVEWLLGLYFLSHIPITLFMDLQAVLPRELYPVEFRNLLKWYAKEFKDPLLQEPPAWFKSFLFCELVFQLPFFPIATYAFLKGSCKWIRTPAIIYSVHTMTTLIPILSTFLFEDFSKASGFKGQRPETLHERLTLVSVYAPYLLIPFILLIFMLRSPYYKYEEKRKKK
measured-parameter: Kd
Be sure to follow the number with its unit.

Task: Note down Kd recorded for CNCCc1ccc(O)cc1
Output: 6.6 µM

----------
target: Trace amine-associated receptor 1 (Rattus norvegicus, UniProt Q923Y9); experiment: Agonist activity at rat TAAR1 stably expressed in HEK293 cells incubated for 30 mins by cAMP assay
Sequence (Q923Y9 whole entry): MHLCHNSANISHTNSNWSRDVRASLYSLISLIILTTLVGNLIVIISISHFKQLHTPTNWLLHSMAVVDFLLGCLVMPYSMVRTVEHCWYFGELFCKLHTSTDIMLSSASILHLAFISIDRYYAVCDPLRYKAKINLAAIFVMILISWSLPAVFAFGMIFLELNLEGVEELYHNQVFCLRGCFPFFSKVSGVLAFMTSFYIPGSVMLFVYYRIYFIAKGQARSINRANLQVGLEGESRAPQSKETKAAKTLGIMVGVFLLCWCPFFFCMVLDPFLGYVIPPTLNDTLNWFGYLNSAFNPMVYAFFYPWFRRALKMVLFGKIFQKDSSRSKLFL
measured-parameter: pEC50
Interpret pEC50 as the negative base-10 log of the concentration measured in mol/L.

Task: System Trace amine-associated receptor 1 (Rattus norvegicus, UniProt Q923Y9). Read-out pEC50. Item NCCc1ccc(O)cc1 . Report value.
Output: 7.52

----------
assay: Acute toxicity in po dosed mouse assessed as lethal dose incubated for 72 hrs; format: organism-based; conditions: in vivo
measured-parameter: LD50 at 72 h
Write the numeric value and append its unit.

Task: Give me measured LD50 at 72 h, please, for this compound: COc1cc2c(c(O)c1OC)C(C)N(C)CC2 (stereo unspecified)
Output: 200 mg/kg

----------
assay: Acute toxicity in iv dosed mouse assessed as lethal dose incubated for 72 hrs; assay type: organism-based; conditions: in vivo
measured-parameter: LD50 at 72 h (mg/kg)
Your answer is read as mg/kg, so omit the unit and give the number.

Task: # return recorded LD50 at 72 h for entry COc1cc2c(c(O)c1OC)C(C)N(C)CC2 (stereo unspecified)
Output: 52.2

----------
biological target: Trace amine-associated receptor 1 (Homo sapiens, UniProt Q96RJ0); experiment: Agonist activity at human TAAR1 stably expressed in HEK293 cells incubated for 30 mins by cAMP assay
Sequence (Q96RJ0 whole entry): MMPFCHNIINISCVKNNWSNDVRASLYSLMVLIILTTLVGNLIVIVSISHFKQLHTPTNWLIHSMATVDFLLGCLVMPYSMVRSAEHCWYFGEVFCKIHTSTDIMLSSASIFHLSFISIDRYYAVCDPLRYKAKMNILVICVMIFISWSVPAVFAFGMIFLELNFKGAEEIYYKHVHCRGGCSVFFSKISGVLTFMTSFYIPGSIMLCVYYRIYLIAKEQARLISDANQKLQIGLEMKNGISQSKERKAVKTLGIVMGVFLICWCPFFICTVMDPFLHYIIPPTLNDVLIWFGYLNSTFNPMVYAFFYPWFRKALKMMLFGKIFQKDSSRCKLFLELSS
measured-parameter: EC50 (nM)
Quick reminder: number only, in nM, skip the unit.

Task: Please report EC50 for the following compound: NCCc1ccc(O)cc1
Output: 990

----------
molecular target: Trace amine-associated receptor 1 (Mus musculus, UniProt Q923Y8); assay: Agonist activity at mouse TAAR1 stably expressed in HEK293 cells incubated for 30 mins by cAMP assay
Sequence (Q923Y8 whole entry): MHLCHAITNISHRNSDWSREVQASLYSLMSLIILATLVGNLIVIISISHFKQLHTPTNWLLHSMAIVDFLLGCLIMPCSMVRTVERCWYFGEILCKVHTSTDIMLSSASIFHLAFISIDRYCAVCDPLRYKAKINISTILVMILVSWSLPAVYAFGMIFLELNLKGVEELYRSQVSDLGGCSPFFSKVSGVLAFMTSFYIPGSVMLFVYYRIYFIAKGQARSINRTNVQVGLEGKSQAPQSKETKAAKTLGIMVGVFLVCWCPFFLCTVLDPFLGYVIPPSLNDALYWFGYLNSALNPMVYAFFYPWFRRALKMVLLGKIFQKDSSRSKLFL
measured-parameter: pEC50
A value of pEC50 is the negative decimal logarithm of a concentration given in moles per litre.

Task: Find the measured pEC50 of NCCc1ccc(O)cc1 [TYRAMINE] and report it.
Output: 6.55
